Overview of reported cell viability across a group of molecules:
system: P12-Ichikawa; assay: cell viability relative to DMSO control; higher = less cytotoxic; details: RPMI 5 mM glucose + 10% FBS; 48 h; 0.569 µM
# unit: % | format: bare number

Some solved cases for reference:
molecule	cell viability (%)
CC(C)c1ccc(Cn2ccc3c4c(N)nc(NC5CC5)nc4ccc32)cc1	133
N[S+](=O)([O-])c1cccc2c1C(=O)c1cccc(O)c1C2=O	106
ClC1=CC\2=C(OC3=C(C=CC=C3)\N=C2N4CCNCC4)C=C1	99.6

Which cell viability value belongs to `NC(=O)c1cccc2cn(-c3ccc([C@@H]4CCCNC4)cc3)nc12` ?
101

For `COc1cccc([C@@H](C)NCCCc2ccccc2Cl)c1` then?
94.1

For `Nc1nc(N)c2nc(-c3cccc(O)c3)c(-c3cccc(O)c3)nc2n1` then?
118

For COc1ccc(C2Sc3ccccc3N(CCN(C)C)C(=O)C2OC(C)=O)cc1 (stereo not given) then?
110

For `NCCCCNCCCN` then?
123

For NC(=O)C1CCCc2c1[nH]c1ccc(Cl)cc21 (stereo not given) then?
109

For `CC(C)c1cc(C(=O)N2Cc3ccc(CN4CCN(C)CC4)cc3C2)c(O)cc1O` then?
56.4
